Values from patent US20200339582A1

- Tested on: Acinetobacter baumannii (carbapenemase produced: None)
- Experimental protocol: MIC against Acinetobacter baumannii, no carbapenemase produced
- Format: cell-based
- Measurement conditions: Acinetobacter baumannii, Table 1; carbapenemase produced: None; read-out: MIC
Property label: MIC (µg/mL)
Write the answer as a number in µg/mL, unit excluded.

In [3]: df
Out[3]:
                            chemical_string  measured_result
0  C[C@@H](O)[C@H]1C(=O)N2C(C(=O)O)=C(SCCN=CN)C[C@H]12             0.25

### Prompt I'd like to know its MIC. The compound in question is C[C@@H](O)[C@H]1C(=O)N2C(C(=O)O)=C(S[C@@H]3CN[C@H](CNS(N)(=O)=O)C3)[C@H](C)[C@H]12
### Response 0.25

### Prompt Entry C[C@@H](O)[C@H]1C(=O)N2C(C(=O)O)=C(S[C@@H]3CN[C@H](C(=O)N(C)C)C3)[C@H](C)[C@H]12 : reported MIC = ?
### Response 0.5

### Prompt Reported MIC for C[C@@H](O)[C@H]1C(=O)N2C(C(=O)O)=C(S[C@@H]3CN[C@H](C(=O)Nc4cccc(C(=O)O)c4)C3)[C@H](C)[C@H]12 : what is it?
### Response 2

====

- Tested on: Acinetobacter baumannii (carbapenemase produced: None)
- Experimental protocol: MIC against Acinetobacter baumannii, no carbapenemase produced
- Assay type: cell-based
- Measurement conditions: Acinetobacter baumannii, Table 2; enzyme produced: None; read-out: MIC
Property label: MIC (µg/mL)
Give the number; µg/mL is assumed, so skip it.

Consider the reported MIC for these compounds:
                            chemical_string  endpoint_unit  measured_result
0  C[C@@H](O)[C@H]1C(=O)N2C(C(=O)O)=C(S[C@@H]3CN[C@H](CNS(N)(=O)=O)C3)[C@H](C)[C@H]12          µg/mL             0.25
1  C[C@@H](O)[C@H]1C(=O)N2C(C(=O)O)=C(S[C@@H]3CN[C@H](C(=O)N(C)C)C3)[C@H](C)[C@H]12          µg/mL              0.5
2  C[C@@H](O)[C@H]1C(=O)N2C(C(=O)O)=C(SCCN=CN)C[C@H]12          µg/mL             0.25

### Prompt Which value of MIC has been reported for C[C@@H](O)[C@H]1C(=O)N2C(C(=O)O)=C(S[C@@H]3CN[C@H](C(=O)Nc4cccc(C(=O)O)c4)C3)[C@H](C)[C@H]12 in the records?
### Response 4

### Prompt Recorded MIC for CC1(C)S[C@@H]2[C@H](NC(=O)[C@H](N)c3ccccc3)C(=O)N2[C@H]1C(=O)O , please?
### Response 32

====

# MIC values compiled below
- Test system: resistant Acinetobacter baumannii producing OXA-23
- Experimental protocol: MIC against Acinetobacter baumannii producing OXA-23
- Format: cell-based
- Measurement conditions: Acinetobacter baumannii; Table 1; carbapenemase produced: OXA-23; read-out: MIC
Reply numerically in µg/mL, unit not repeated.

>>> print(df.to_string())
                            chemical_string  property_label  endpoint_unit  measured_result
0  C[C@@H](O)[C@H]1C(=O)N2C(C(=O)O)=C(S[C@@H]3CN[C@H](CNS(N)(=O)=O)C3)[C@H](C)[C@H]12             MIC          µg/mL               32

### Prompt Which value of MIC has been reported for C[C@@H](O)[C@H]1C(=O)N2C(C(=O)O)=C(SCCN=CN)C[C@H]12 in the records?
### Response 32

### Prompt Would you kindly share the measured MIC for C[C@@H](O)[C@H]1C(=O)N2C(C(=O)O)=C(S[C@@H]3CN[C@H](C(=O)N(C)C)C3)[C@H](C)[C@H]12 ?
### Response 64

### Prompt I am curious: what MIC value has been reported for C[C@@H](O)[C@H]1C(=O)N2C(C(=O)O)=C(S[C@@H]3CN[C@H](C(=O)Nc4cccc(C(=O)O)c4)C3)[C@H](C)[C@H]12 ?
### Response 256
